Cited source: ChEMBL document CHEMBL1140391

# TARGET_OR_SYSTEM: UniProt:P14416
# PROTOCOL_DESCRIPTION: Binding affinity against Dopamine receptor D2 expressed in CHO cells
pKi: −log10 of the molar value.
TEST_READOUT: pKi

See these solved cases before continuing.
>>> print(df.to_string())
                                   molecule  target_or_system  observed
0  CC(=O)N1CCC(C)c2cc(F)cc(CCN3CCN(c4noc5ccccc45)CC3)c21 (centres undefined)    UniProt:P14416      7.54
1  CC1CC(=O)Nc2c(CCN3CCN(c4nsc5ccccc45)CC3)cccc21 (centres undefined)    UniProt:P14416      7.68
2  CC1CCN(C(=O)C2CCCCC2)c2c(CCN3CCN(c4nsc5ccccc45)CC3)cccc21 (centres undefined)    UniProt:P14416      7.60
3  COc1cccc(CC(=O)N2CCC(C)c3cccc(CCN4CCN(c5nsc6ccccc56)CC4)c32)c1 (centres undefined)    UniProt:P14416      8.40
4  Cc1cc(CCN2CCN(c3noc4ccccc34)CC2)c2c(c1)C(C)CC(=O)N2 (centres undefined)    UniProt:P14416      7.46

A: Cc1ccc(CCN2CCN(c3nsc4ccccc34)CC2)c2c1C(C)CC(=O)N2 (centres undefined)
B: CC1CC(=O)Nc2c(CCN3CCN(c4n[s+]([O-])c5ccccc45)CC3)cc(F)cc21 (centres undefined)
Task: Thinking about recorded pKi values, which is higher, A or B ? Identify your selection by its label.
Result: A
(A: 7.96, B: 7.04)

a: CC(=O)N1CCC(c2ccccc2)c2cccc(CCN3CCN(c4nsc5ccccc45)CC3)c21 (centres undefined)
b: CC1CC(=O)N(C)c2c(CCN3CCN(c4nsc5ccccc45)CC3)cccc21 (centres undefined)
Task: Between a and b , which one has the lower reported pKi value? Answer with the label corresponding to your selection.
Result: b

* * *

# TARGET_OR_SYSTEM: D(2) dopamine receptor (Homo sapiens, UniProt P14416)
# Sequence (P14416 whole entry): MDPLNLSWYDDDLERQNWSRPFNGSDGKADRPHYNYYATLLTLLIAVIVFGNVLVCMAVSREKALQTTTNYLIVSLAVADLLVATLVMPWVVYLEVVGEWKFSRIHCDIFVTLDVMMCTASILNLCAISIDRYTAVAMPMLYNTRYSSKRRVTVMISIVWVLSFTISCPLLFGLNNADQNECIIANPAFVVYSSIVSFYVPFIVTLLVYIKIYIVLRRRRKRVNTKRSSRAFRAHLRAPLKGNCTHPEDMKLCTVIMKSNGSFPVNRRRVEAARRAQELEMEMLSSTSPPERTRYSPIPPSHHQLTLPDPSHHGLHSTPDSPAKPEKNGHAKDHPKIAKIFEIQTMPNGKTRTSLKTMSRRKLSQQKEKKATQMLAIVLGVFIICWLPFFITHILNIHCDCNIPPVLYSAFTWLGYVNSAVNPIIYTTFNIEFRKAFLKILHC
# PROTOCOL_DESCRIPTION: Binding affinity against Dopamine receptor D2 expressed in CHO cells
pKi: −log10 of the molar value.
TEST_READOUT: pKi

Look over these answered cases.
In [3]: df
Out[3]:
                                   compound  observed
0  CC1(C)CCNc2c(CCN3CCN(c4nsc5ccccc45)CC3)cccc21      7.23
1  CC(=O)N1CCC(C)c2cc(F)cc(CCN3CCN(c4nsc5ccccc45)CC3)c21 (stereo not given)      7.74
2  CC(=O)N1CCC(C)c2c(C)ccc(CCN3CCN(c4nsc5ccccc45)CC3)c21 (stereo not given)      7.92
3  CC1CC(=O)Nc2c(CCN3CCN(c4nsc5ccccc45)CC3)cc(F)cc21 (stereo not given)      7.82
4  CC(=O)N1CCC(C)c2c(C)ccc(CCN3CCN(c4noc5ccccc45)CC3)c21 (stereo not given)      7.77

1: CC1CCN(C(=O)c2ccccc2)c2c(CCN3CCN(c4nsc5ccccc45)CC3)cccc21 (stereo not given)
2: CC1Cc2cccc(CCN3CCN(c4nsc5ccccc45)CC3)c2NC1=O (stereo not given)
Task: I need your help: which of the pair 1 , 2 has higher pKi? Returns: label corresponding to the selected item.
Result: 1

* * *

# TARGET_OR_SYSTEM: UniProt P14416
# PROTOCOL_DESCRIPTION: Binding affinity against Dopamine receptor D2 expressed in CHO cells
pKi: −log10 of the molar value.
TEST_READOUT: pKi

Task: Given the entry CC1CC(=O)Nc2c(CCN3CCN(c4noc5ccccc45)CC3)cccc21 (stereo not drawn) , report its measured pKi.
Result: < 7.00

Task: What pKi value was documented for this compound, CC1CC(=O)Nc2c(CCN3CCN(c4noc5ccccc45)CC3)cc(F)cc21 (stereo not drawn) ?
Result: < 7.00

Task: Tell me the measured pKi of CC1CC(=O)Nc2c(CCN3CCN(c4nsc5ccccc45)CC3)cc(Cl)cc21 (stereo not drawn) , please.
Result: < 7.00
